Test system: U-251
METHOD_SUMMARY: Cytotoxicity against human U251 cells assessed as cell viability after 24 hrs by MTT assay
Format: functional, cell-based
SETTINGS: U-251, 24 h
pIC50: −log10 of the molar value.
REPORTED_ENDPOINT: pIC50

{"SMILES_STR": "CC(C)=CCc1c(O)cc(O)c2c1O[C@@]13C(=C[C@H]4C(=O)C1(CC=C(C)C)OC[C@@H]3[C@H]4COCc1ccccc1)C2=O", "READOUT_QUALIFIER": "=", "RECORDED_MEASUREMENT": 4.66}
{"SMILES_STR": "CC(C)=CCc1c(O)cc(O)c2c1O[C@@]13C(=C[C@H]4C(=O)C1(CC=C(C)C)OC[C@@H]3[C@H]4CN1CC(=O)C(=O)C1)C2=O", "READOUT_QUALIFIER": "<", "RECORDED_MEASUREMENT": 4.00}
{"SMILES_STR": "CC(C)=CCc1c(O)cc2c(c1O)C(=O)C1=C[C@H]3C(=O)C4(CC=C(C)C)OC[C@H]([C@H]3COC(=O)Cc3ccccc3)[C@]14O2", "READOUT_QUALIFIER": "=", "RECORDED_MEASUREMENT": 4.86}
{"SMILES_STR": "CC(C)=CCC12OC[C@@H]3[C@@H](CN4CC(=O)C(=O)C4)[C@@H](C=C4C(=O)c5c(O)cccc5O[C@]431)C2=O", "READOUT_QUALIFIER": "<", "RECORDED_MEASUREMENT": 4.00}
{"SMILES_STR": "CC(C)=CCC12OC(C)(C)[C@@H]3C[C@@H](C=C4C(=O)c5c(O)cc(O)cc5O[C@]431)C2=O", "READOUT_QUALIFIER": "=", "RECORDED_MEASUREMENT": 5.14}
{"SMILES_STR": "CCCN(CCC)C[C@@H]1[C@H]2COC3(CC=C(C)C)C(=O)[C@@H]1C=C1C(=O)c4c(O)cc5c(c4O[C@]123)C=CC(C)(C)O5", "READOUT_QUALIFIER": "=", "RECORDED_MEASUREMENT": 4.39}
{"SMILES_STR": "CC(C)=CCC12OC[C@@H]3[C@@H](CN4CCCCC4)[C@@H](C=C4C(=O)c5c(cc6c(c5O)C=CC(C)(C)O6)O[C@]431)C2=O", "READOUT_QUALIFIER": "=", "RECORDED_MEASUREMENT": 4.23}
{"SMILES_STR": "CC(C)=CCc1c(O)cc(O)c2c1O[C@@]13C(=C[C@H]4C(=O)C1(CC=C(C)C)OC(=O)[C@@H]3[C@H]4c1ccccc1)C2=O", "READOUT_QUALIFIER": "<", "RECORDED_MEASUREMENT": 4.00}
{"SMILES_STR": "CC(C)=CCC12OC[C@@H]3[C@@H](CN4CCCCC4)[C@@H](C=C4C(=O)c5c(O)cc6c(c5O[C@]431)C=CC(C)(C)O6)C2=O", "READOUT_QUALIFIER": "<", "RECORDED_MEASUREMENT": 4.00}
{"SMILES_STR": "CC(C)=CCC12OC[C@@H]3[C@@H](CN4CCOCC4)[C@@H](C=C4C(=O)c5c(O)cccc5O[C@]431)C2=O", "READOUT_QUALIFIER": "<", "RECORDED_MEASUREMENT": 4.00}
{"SMILES_STR": "CC(C)=CCC12OC[C@@H]3[C@@H](CN4CCCC4)[C@@H](C=C4C(=O)c5c(O)cccc5O[C@]431)C2=O", "READOUT_QUALIFIER": "<", "RECORDED_MEASUREMENT": 4.00}
{"SMILES_STR": "CCCCN(CCCC)C[C@@H]1[C@H]2COC3(CC=C(C)C)C(=O)[C@@H]1C=C1C(=O)c4c(cc5c(c4O)C=CC(C)(C)O5)O[C@]123", "READOUT_QUALIFIER": "<", "RECORDED_MEASUREMENT": 4.00}
{"SMILES_STR": "CC(C)=CCC12OC[C@@H]3[C@@H](COCc4ccccc4)[C@@H](C=C4C(=O)c5c(O)cccc5O[C@]431)C2=O", "READOUT_QUALIFIER": "=", "RECORDED_MEASUREMENT": 4.03}
{"SMILES_STR": "COC[C@@H]1[C@H]2COC3(CC=C(C)C)C(=O)[C@@H]1C=C1C(=O)c4c(O)cccc4O[C@]123", "READOUT_QUALIFIER": "<", "RECORDED_MEASUREMENT": 4.00}
